The measurements presented in this section are drawn from ChEMBL document CHEMBL2331502.

assayTarget: Neuronal acetylcholine receptor subunit alpha-7 (Rattus norvegicus, UniProt Q05941)
Sequence (Q05941 whole entry): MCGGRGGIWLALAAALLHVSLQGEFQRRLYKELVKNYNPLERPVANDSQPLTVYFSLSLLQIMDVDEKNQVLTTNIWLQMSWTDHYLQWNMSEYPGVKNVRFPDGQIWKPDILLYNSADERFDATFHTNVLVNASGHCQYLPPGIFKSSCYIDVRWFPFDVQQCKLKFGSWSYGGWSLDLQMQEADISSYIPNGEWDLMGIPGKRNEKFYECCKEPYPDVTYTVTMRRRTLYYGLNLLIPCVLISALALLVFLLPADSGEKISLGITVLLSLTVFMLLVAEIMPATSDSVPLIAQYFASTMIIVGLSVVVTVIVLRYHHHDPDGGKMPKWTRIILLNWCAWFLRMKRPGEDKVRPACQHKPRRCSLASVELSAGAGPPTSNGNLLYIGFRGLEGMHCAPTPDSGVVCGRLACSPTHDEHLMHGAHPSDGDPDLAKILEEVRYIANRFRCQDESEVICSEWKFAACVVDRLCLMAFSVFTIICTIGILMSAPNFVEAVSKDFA
procedureText: Agonist activity at rat alpha7 nAChR expressed in HEK293 cells assessed as area under the curve of acetylcholine-induced response by whole-cell patch clamp electrophysiology paradigm assay
Type: cell-based
quantityKind: EC50 (nM)
State the answer as a number, implicitly in nM.

Before answering, review these 5 worked examples.
input: Look at this compound and give its reported EC50. O=c1cc(-c2ccccc2)c2ccccc2n1CC1CN2CCC1CC2 (stereo unspecified)
output: 760

input: Look at this compound and give its reported EC50. CS(=O)(=O)NCc1cccc(-c2cc(=O)n(CC3CN4CCC3CC4)c3ccccc23)c1 (racemic)
output: 260

input: Look at this compound and give its reported EC50. CN(C)CCCn1c(=O)c(C#N)c(-c2ccccc2)c2ccccc21
output: 8200

input: Look at this compound and give its reported EC50. O=c1cc(-c2ccccc2)c2ccccc2n1CC1CCCNC1 (stereo unspecified)
output: 2500

input: Look at this compound and give its reported EC50. O=c1cc(-c2ccccc2)c2ccccc2n1CC1CNCCO1 (stereo unspecified)
output: 1200

Let's switch to this compound now.
input: Look at this compound and give its reported EC50. O=c1cc(-c2cccc3[nH]ccc23)c2ccccc2n1CC1CN2CCC1CC2 (racemic)
output: 540
